B1: TPR t1 (parent)
chain: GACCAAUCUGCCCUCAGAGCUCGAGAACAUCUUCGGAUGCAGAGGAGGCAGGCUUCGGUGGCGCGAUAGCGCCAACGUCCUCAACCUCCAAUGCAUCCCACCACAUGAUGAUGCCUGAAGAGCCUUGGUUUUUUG

variants of: B1; assay: polymerase ribozyme fitness, log enrichment relative to wild type (log ratio); higher = more active; in vitro selection for triplet polymerase activity
So basically: polymerase ribozyme fitness (log ratio) at -3 or higher? That is true (1). Lower than -3? That is false (0).

Previously resolved entries follow.
{"Mutation Annotation": "C72U C82G G113U", "Label Class": "false (0)"}
{"Mutation Annotation": "C11A C72U", "Label Class": "true (1)"}
{"Mutation Annotation": "A66U U81A", "Label Class": "true (1)"}
{"Mutation Annotation": "A46C C49G C73U", "Label Class": "true (1)"}
{"Mutation Annotation": "C31U C34G C53G C70G A90C G120A G122A C124A", "Label Class": "false (0)"}

Input: Identify whether the reported polymerase ribozyme fitness (log ratio) of the following variant is -3 or greater: A74G C98G
Output: false (0)

Input: Identify whether the reported polymerase ribozyme fitness (log ratio) of the following variant is -3 or greater: G93C G117A
Output: true (1)

Input: Identify whether the reported polymerase ribozyme fitness (log ratio) of the following variant is -3 or greater: C3G A16U U38G
Output: false (0)

Input: Identify whether the reported polymerase ribozyme fitness (log ratio) of the following variant is -3 or greater: C34G G44A
Output: false (0)

Input: Identify whether the reported polymerase ribozyme fitness (log ratio) of the following variant is -3 or greater: U7G C22U C101A C114A A118U A119U
Output: false (0)

Data provenance: the RNAGym collection of RNA variant scans (doi:10.1073/pnas.2313332121)
